Numbers sourced from ChEMBL document CHEMBL6178021.

- System: MDR1 (human)
- Procedure details: Apparent permeability across apical to basolateral side in MDCK transfected with human MDR1 cells incubated for 1 hr by LC-MS analysis
- Study conditions: dog, MDCK-MDR1
Assign condition met to entries whose Papp A→B at 1 h meets or exceeds 0.04 ×10⁻⁶ cm/s; assign condition not met to the rest.

Reference set, count: 5
{"columns": ["Smiles str", "Target desc", "Class label"],
 "data": [
  ["CCC1=C(CC)/C(=C/NC2CCCCC2)N=C1c1cc2cc(Cl)ccc2[nH]1", "MDR1 (human)", "condition not met"],
  ["CCC1=C(CC)/C(=C/NC2CCCCC2)N=C1c1ccc(-c2ccc(OC)cc2)[nH]1", "MDR1 (human)", "condition not met"],
  ["CC1=C(C)/C(=C/NC2CCCCCC2)N=C1c1ccc(C)[nH]1", "MDR1 (human)", "condition not met"],
  ["CCC1=C(CC)/C(=C/NC2CCCCC2)N=C1c1ccc(-c2ccccc2)[nH]1", "MDR1 (human)", "condition not met"],
  ["CCC1=C(C)/C(=C/NC2CCCCC2)N=C1c1ccc(CC)[nH]1", "MDR1 (human)", "condition met"]
]}

**Q:** Could you tell me if the measured Papp A→B at 1 h of FC(F)(F)[C@H]1CC[C@H](N/C=C2\N=C(c3ccc[nH]3)C3=C2CCCC3)CC1 reaches 0.04 ×10⁻⁶ cm/s or more?
**A:** condition met

**Q:** Next record, please: CCC1=C(CC)/C(=C/NC23C[C@H]4C[C@@H](C2)C[C@@H](C3)C4)N=C1c1ccc(-c2ccccc2)[nH]1
**A:** condition met

**Q:** Next record, please: CCC1=C(CC)/C(=C/NC23C[C@H]4C[C@@H](C2)C[C@@H](C3)C4)N=C1c1ccc(Cl)[nH]1
**A:** condition met

**Q:** Next record, please: CCc1ccc(C2=N/C(=C\NC3CCCCC3)C3=C2CCCC3)[nH]1
**A:** condition not met

**Q:** Next record, please: CCc1ccc(C2=N/C(=C\NC3CCCCC3)C(OC)=C2OC)[nH]1
**A:** condition met

**Q:** Next record, please: CCC1=C(C)/C(=C/NC2CCCCCCC2)N=C1c1ccc(CC)[nH]1
**A:** condition met
